Cited source for all entries: patent US20240360228A1

Target: T1, human CCR8 (human, UniProt P51685 1-355)
T1 construct: Native CCR8 on human PBMC (CCR8+ CD3+ or CCR8+ CD4+ lymphocytes); also called chemokine (C-C motif) receptor 8
T1 sequence (P51685 whole entry): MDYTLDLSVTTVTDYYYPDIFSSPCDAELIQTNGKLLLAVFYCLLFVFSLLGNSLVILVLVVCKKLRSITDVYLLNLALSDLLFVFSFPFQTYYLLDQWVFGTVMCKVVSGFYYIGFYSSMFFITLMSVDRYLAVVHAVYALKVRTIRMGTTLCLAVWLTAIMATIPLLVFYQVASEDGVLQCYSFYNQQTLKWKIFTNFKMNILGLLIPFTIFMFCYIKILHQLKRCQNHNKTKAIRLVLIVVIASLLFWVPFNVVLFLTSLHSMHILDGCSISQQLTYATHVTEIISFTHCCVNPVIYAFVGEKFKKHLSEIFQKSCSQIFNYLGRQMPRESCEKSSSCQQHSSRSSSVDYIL
Experiment: flow blocking, PBMC CCR8+CD4+; competitor PE-AB12
metric_name: % Blocking (%)
Give the number; % is assumed, so skip it.

Request: Name the reported % Blocking value associated with the binder AB10 (antibody, V domains shown, Hybridoma monoclonal; also called antibody 10; clone 10) VH: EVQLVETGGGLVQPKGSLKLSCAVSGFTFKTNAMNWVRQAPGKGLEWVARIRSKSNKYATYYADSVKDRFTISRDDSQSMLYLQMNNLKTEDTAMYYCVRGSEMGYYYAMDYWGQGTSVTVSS VL: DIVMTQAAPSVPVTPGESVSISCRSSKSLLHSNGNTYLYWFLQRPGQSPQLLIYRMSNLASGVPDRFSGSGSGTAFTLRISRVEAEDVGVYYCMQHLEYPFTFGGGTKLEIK
Result: 98.9
